# System: H1650 cells
# assay info: CellTiterGlo (CTG) cell viability, 3D, 120 h, H1650 (Example 8)
# Assay type: cell-based, human
# condition label: H1650 3D, mean of n1 and n2, read-out: H1650 3D CTG IC50 Mean of n1 and n2
pIC50: −log10 of the molar value.
Assign t whenever pIC50 does not fall below 9; assign f whenever it does.

- molecule: "Cc1cc(N(C)c2ccc(-c3cnn(C[C@]45C[C@]6(C)C[C@](C)(C4)C[C@@](OCCN(CCCO)C(=O)OCc4ccc(NC(=O)[C@H](CCCNC(N)=O)CC(=O)[C@@H](NC(=O)CCOCCN7C(=O)CC(C)C7=O)C(C)C)cc4)(C6)C5)c3C)c(C(=O)O)n2)nnc1Nc1nc2ccccc2s1 (mixture of isomers)"
  cat: "t"
- molecule: "Cc1c(Nc2nc3ccccc3s2)nnc2c1CCCN2c1nc(C(=O)O)c(CCCOc2ccc(C#CCN(C)C(=O)OCc3ccc(NC(=O)[C@H](CCCNC(N)=O)NC(=O)[C@@H](NC(=O)CCOCCN4C(=O)CC(C)C4=O)C(C)C)cc3S(=O)(=O)O)cc2F)s1 (stereo partly shown) [Ab C - L27C-P3]"
  cat: "f"
- molecule: "C=C(C)CCCC[C@](C)(CC(=C)[C@@](C)(CC(=C)CCCCCC1C(=C)CC(C)C1=C)C(C)C)C(=C)Cc1ccc(CC(C)(C)CCC[C@]23C[C@]4(C)C[C@](C)(C2)C[C@@](CC2C=CC(c5ccc(C6CCCc7c6ccc(CC6=Cc8ccccc8C6)c7C)cc5C(=C)C)=C2C)(C4)C3)cc1 (stereo partly shown)"
  cat: "t"
- molecule: "C=C(C)CCCC[C@](C)(CC(=C)[C@@](C)(CC(=C)CCCCCC1C(=C)CC(C)C1=C)C(C)C)C(=C)Cc1ccc(CCC(=C)C(CCCCC)CCC[C@]23C[C@]4(C)C[C@](C)(C2)C[C@@](CC2C=CC(c5ccc(C(C)c6ccc(CC7=Cc8ccccc8C7)c(C)c6)cc5C(=C)C)=C2C)(C4)C3)cc1 (stereo partly shown)"
  cat: "t"
- molecule: "C=C(C)CCCC[C@](C)(CC(=C)[C@@](C)(CC(=C)CCCCCC1C(=C)CC(C)C1=C)C(C)C)C(=C)Cc1ccc(CCC(=C)C2CCC(CCC[C@]34C[C@]5(C)C[C@](C)(C3)C[C@@](CC3C=CC(c6ccc(C7CCCc8c7ccc(CC7=Cc9ccccc9C7)c8C)cc6C(=C)C)=C3C)(C5)C4)CC2)cc1 (stereo partly shown)"
  cat: "t"

---

# System: H1650 human non-small cell lung carcinoma (NSCLC) model
# assay info: In vivo efficacy of EGFR1-Bcl-xL inhibitor ADCs with different linker payloads in combination with docetaxel, H1650 xenografts (Example 16)
# Parameters: species or system female SCID mice
# condition label: 7.5 mg/kg i.v. once + docetaxel 7.5 mg/kg iv 24 h later; day 21; mean±SEM
quantity kind: ΔTumor volume (mm^3) D21

- molecule: "Cc1c(Nc2nc3ccccc3s2)nnc2c1CCCN2c1ccc(-c2cnn(CC34CC5(C)CC(C)(C3)CC(OCC[N+](C)(C)Cc3ccc(NC(=O)[C@H](CCCNC(N)=O)NC(=O)[C@@H](NC(=O)CCOCCN6C(=O)CC(C)C6=O)C(C)C)cc3CN(C)C(=O)CCOCCOCCOCCOCCOCCOCCOCCOCCOCCOCCOCCOCCOCCOCCOCCOCCOCCOCCOCCOCCOCCOCCOCCOCCOCCC(=O)O)(C5)C4)c2C)c(C(=O)O)n1 (stereo partly shown) [EGFR1-L11A-P27]"
  assayed system: "H1650 human non-small cell lung carcinoma (NSCLC) model"
  measured value: 14
- molecule: "Cc1c(Nc2nc3ccccc3s2)nnc2c1CCCN2c1ccc(-c2cnn(CC34CC5(C)CC(C)(C3)CC(OCC[N+]3(Cc6ccc(NC(=O)[C@H](CCCNC(N)=O)NC(=O)[C@@H](NC(=O)CCOCCN7C(=O)CC(C)C7=O)C(C)C)cc6CN(C)C(=O)CCOCCOCCOCCOCCOCCOCCOCCOCCOCCOCCOCCOCCOCCOCCOCCOCCOCCOCCOCCOCCOCCOCCOCCOCCOCCC(=O)O)CCCC3)(C5)C4)c2C)c(C(=O)O)n1 (stereo partly shown) [EGFR1-L11A-P21]"
  assayed system: "H1650 human non-small cell lung carcinoma (NSCLC) model"
  measured value: "−16"
- molecule: "Cc1c(Nc2nc3ccccc3s2)nnc2c1CCCN2c1ccc(-c2cnn(CC34CC5(C)CC(C)(C3)CC(OCCN(CC[C@H](O)CO)C(=O)OCc3ccc(NC(=O)[C@H](CCCNC(N)=O)NC(=O)[C@@H](NC(=O)CCOCCN6C(=O)CC(C)C6=O)C(C)C)cc3CN(C)C(=O)CCOCCOCCOCCOCCOCCOCCOCCOCCOCCOCCOCCOCCOCCOCCOCCOCCOCCOCCOCCOCCOCCOCCOCCOCCOCCC(=O)O)(C5)C4)c2C)c(C(=O)O)n1 (mixture of isomers) [EGFR1-L11C-P19]"
  assayed system: "H1650 human non-small cell lung carcinoma (NSCLC) model"
  measured value: "−52"
- molecule: "Cc1c(Nc2nc3ccccc3s2)nnc2c1CCCN2c1ccc(-c2cnn(CC34CC5(C)CC(C)(C3)CC(OCCN(CCCO)C(=O)OCc3ccc(NC(=O)[C@H](CCCNC(N)=O)NC(=O)[C@@H](NC(=O)CCOCCN6C(=O)CC(C)C6=O)C(C)C)cc3CN(C)C(=O)CCOCCOCCOCCOCCOCCOCCOCCOCCOCCOCCOCCOCCOCCOCCOCCOCCOCCOCCOCCOCCOCCOCCOCCOCCOCCC(=O)O)(C5)C4)c2C)c(C(=O)O)n1 (stereo partly shown) [EGFR1-L11C-P25]"
  assayed system: "H1650 human non-small cell lung carcinoma (NSCLC) model"
  measured value: "−76"

---

Reported values of pIC50 for individual entries
# Tested on: H1650 cells
# assay info: CellTiterGlo (CTG) cell viability, 3D, 120 h, H1650 (Example 8)
# Assay type: cell-based, human
# condition label: Homo sapiens, NCI-H1650, H1650 3D, mean of n1 and n2, read-out: H1650 3D CTG IC50 Mean of n1 and n2
pIC50: −log10 of the molar value.
quantity kind: pIC50

- compound structure string: "Cc1c(Nc2nc3ccccc3s2)nnc2c1CCCN2c1ccc(-c2cnn(CC34CC5(C)CC(C)(CC(CCCN(C)CCC(=O)O)(C5)C3)C4)c2C)c(C(=O)O)n1"
  quantity kind: "pIC50"
  measured value: 8.07
- compound structure string: "Cc1c(Nc2nc3ccccc3s2)nnc2c1CCCN2c1ccc(-c2cnn(CC34CC5(C)CC(C)(CC(CCCN(C)CCO)(C5)C3)C4)c2C)c(C(=O)O)n1"
  quantity kind: "pIC50"
  measured value: 8.92
- compound structure string: "Cc1c(Nc2nc3ccccc3s2)nnc2c1CCCN2c1nc(C(=O)O)c(CCCOc2ccc(C#CCN(C)CC[C@H](O)CO)cc2F)s1"
  quantity kind: "pIC50"
  measured value: 9.12
- compound structure string: "Cc1c(Nc2nc3ccccc3s2)nnc2c1CCCN2c1nc(C(=O)O)c(CCCOc2ccc(C#CCN3CCC(F)(F)CC3)cc2F)s1"
  quantity kind: "pIC50"
  measured value: 8.96
- compound structure string: "Cc1c(Nc2nc3ccccc3s2)nnc2c1CCCN2c1ccc(-c2cnn(CC34CC5(C)CC(C)(CC(CCCNCC(=O)O)(C5)C3)C4)c2C)c(C(=O)O)n1"
  quantity kind: "pIC50"
  measured value: 7.44
- compound structure string: "Cc1ccc2sc(Nc3nnc4c(c3C)CCCN4c3ccc(-c4cnn(C[C@]56C[C@]7(C)C[C@](C)(C5)C[C@@](OCCN5CCCC5)(C7)C6)c4C)c(C(=O)O)n3)nc2c1"
  quantity kind: "pIC50"
  measured value: 7.95

---

# assay info: ADC stability study: % aggregates by SEC after incubation at 37° C. for 168 h
# Format: physicochemical
Reported values of Stab w1 +37° C. % Agg (by SEC) for individual entries

- molecule: "Cc1c(Nc2nc3ccccc3s2)nnc2c1CCCN2c1nc(C(=O)O)c(CCCOc2ccc(C#CCN3CCN(C(=O)OCc4ccc(NC(=O)[C@H](CCCNC(N)=O)NC(=O)[C@@H](NC(=O)CCOCCN5C(=O)CC(C)C5=O)C(C)C)cc4)CC3)cc2F)s1 (some centres unmarked) [Ab C - L9C-P17]"
  Stab w1 +37° C. % Agg (by SEC) (%): 22
- molecule: "Cc1c(Nc2nc3ccccc3s2)nnc2c1CCCN2c1nc(C(=O)O)c(CCCOc2ccc(C#CCN(C)C(=O)OCc3ccc(NC(=O)[C@H](CCCNC(N)=O)NC(=O)[C@@H](NC(=O)CCOCCN4C(=O)CC(C)C4=O)C(C)C)cc3S(=O)(=O)O)cc2F)s1 (some centres unmarked) [Ab C - L27C-P3]"
  Stab w1 +37° C. % Agg (by SEC) (%): 17
